study_target: T1, Biotinylated human BSSL (human, UniProt P19835 21-753, Biotinylated on glycosacarides, 30-40 biotin/BSSL)
T1 construct: hBSSL biotinylated in house; also called b-hBSSL; human BSSL-biotin
T1 sequence: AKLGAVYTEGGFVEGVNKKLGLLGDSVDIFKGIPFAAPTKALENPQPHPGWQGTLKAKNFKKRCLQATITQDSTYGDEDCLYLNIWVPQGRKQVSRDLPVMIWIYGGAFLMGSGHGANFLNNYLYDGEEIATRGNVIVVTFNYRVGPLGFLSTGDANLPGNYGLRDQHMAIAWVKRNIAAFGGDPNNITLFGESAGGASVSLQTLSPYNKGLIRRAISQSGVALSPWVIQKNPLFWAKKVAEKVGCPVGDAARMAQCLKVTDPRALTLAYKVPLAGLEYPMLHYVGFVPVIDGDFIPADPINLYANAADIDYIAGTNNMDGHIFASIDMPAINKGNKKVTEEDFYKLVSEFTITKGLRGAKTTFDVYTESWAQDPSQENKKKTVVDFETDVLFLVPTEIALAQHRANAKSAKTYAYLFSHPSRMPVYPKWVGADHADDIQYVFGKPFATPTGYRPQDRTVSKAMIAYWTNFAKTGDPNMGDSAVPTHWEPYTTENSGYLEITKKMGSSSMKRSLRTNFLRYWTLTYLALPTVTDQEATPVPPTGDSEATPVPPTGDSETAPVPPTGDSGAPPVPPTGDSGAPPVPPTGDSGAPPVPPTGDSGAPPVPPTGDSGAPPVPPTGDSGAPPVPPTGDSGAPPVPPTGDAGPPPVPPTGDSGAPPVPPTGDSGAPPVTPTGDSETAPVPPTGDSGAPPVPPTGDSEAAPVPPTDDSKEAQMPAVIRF
experimental_details: flow cytometry displacement assay; 1.5 ug antibody, 1 ug b-hBSSL
Consider the following binders; for each one, report its percentage reduction of b-hBSSL binding to CD14+ monocytes.
Use % as the unit, but write only the number.

Query :: percentage reduction of b-hBSSL binding to CD14+ monocytes lookup needed for S-SL048-66 hIgG4 S228P (antibody, V domains shown, Tested as human IgG4 S228P) VH: QVQLVQSGAEVKKPGASVKVSCKASGYTFTSYNMHWVRQAPGQGLEWMGVINPGDGATSYNQKFKGRVTMTRDTSTSTVYMELSSLRSEDTAVYYCARDYYGSSPLGYWGQGTLVTVSS VL: DIQMTQSPSSLSASVGDRVTITCSASQSISYMNWYQQKPGKAPKLLIYDASSLASGVPSRFSGSGSGTDFTLTISSLQPEDFATYYCHQRSSTPTFGQGTKLEIK , thanks.
Result :: 39

Query :: Then S-SL048-106 hIgG4 S228P (antibody, V domains shown, also called mAb106) VH: QVQLVQSGAEVKKPGASVKVSCKASGYTFTSYNMHWVRQAPGQGLEWIGVIYPGDGSTSYNQKFQGRVTMTRDTSTSTVYMELSSLRSEDTAVYYCARDYYGSSPLGYWGQGTLVTVSS VL: DIQMTQSPSSLSASVGDRVTITCSASSSISYMNWYQQKPGKAPKLLIYATSKLPSGVPSRFSGSGSGTDFTLTISSLQPEDFATYYCHQRSSTPTFGQGTKLEIKR ?
Result :: 52
